- Tested on: 282377-053-R-J1-PDC tumor spheroids, viability
- method: Anticancer human tumor 282377-053-R-J1-PDC patient-derived colon adenocarcinoma cell line growth inhibition [TAK]
- setup conditions: second compound 0.949 µM; first compound 0.001 µM; stronger effect = lower value; spheroids with HUVEC and MSC
experimental readout: viability, T/C (%)
Your answer is read as %, so omit the unit and give the number.

COC1CC2CCC(C)C(O)(O2)C(=O)C(=O)N2CCCCC2C(=O)OC(C(C)CC2CCC(OCCO)C(OC)C2)CC(=O)C(C)C=C(C)C(O)C(OC)C(=O)C(C)CC(C)C=CC=CC=C1C (centres undefined) + CC(C)NCC(C(=O)N1CCN(c2ncnc3c2C(C)CC3O)CC1)c1ccc(Cl)cc1; 87
CC(C)n1nc(-c2ccc3oc(N)nc3c2)c2c(N)ncnc21 + CC(C)NCC(C(=O)N1CCN(c2ncnc3c2C(C)CC3O)CC1)c1ccc(Cl)cc1; 93
CC(C)CC(NC(=O)CNC(=O)c1cc(Cl)ccc1Cl)B1OC(=O)CC(CC(=O)O)(C(=O)O)O1 (centres undefined) + CC(C)NCC(C(=O)N1CCN(c2ncnc3c2C(C)CC3O)CC1)c1ccc(Cl)cc1; 88.3

# input for lookup
Data request: Look at this compound and give its reported viability, T/C. CC(C)CC(NC(=O)C(Cc1ccccc1)NC(=O)c1cnccn1)B(O)O (centres undefined) + CC(C)NCC(C(=O)N1CCN(c2ncnc3c2C(C)CC3O)CC1)c1ccc(Cl)cc1
Data returned: 101

----------
# pIC50 annotations
- Tested on: 282377-053-R-J1-PDC tumor spheroids, viability
- method: Anticancer human tumor 282377-053-R-J1-PDC cell line growth inhibition [TAK];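 further: spheroids exposed to drugs for seven days before readout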
- setup conditions: curve of first compound; second compound 0.949 µM; spheroids with HUVEC and MSC
Note: pIC50 values are expressed as the negative base-10 logarithm of concentration in M.

Cn1cnc2c(F)c(Nc3ccc(Br)cc3Cl)c(C(=O)NOCCO)cc21 + CC(C)NCC(C(=O)N1CCN(c2ncnc3c2C(C)CC3O)CC1)c1ccc(Cl)cc1; 6.72

Data request: Which pIC50 is listed for CC(=O)Nc1cccc(-n2c(=O)n(C3CC3)c(=O)c3c(Nc4ccc(I)cc4F)n(C)c(=O)c(C)c32)c1 + CC(C)NCC(C(=O)N1CCN(c2ncnc3c2C(C)CC3O)CC1)c1ccc(Cl)cc1 ?
Data returned: 8.71

Data request: Form field: reported pIC50 of CC(C)CC(NC(=O)CNC(=O)c1cc(Cl)ccc1Cl)B1OC(=O)CC(CC(=O)O)(C(=O)O)O1 (stereo not given) + CC(C)NCC(C(=O)N1CCN(c2ncnc3c2C(C)CC3O)CC1)c1ccc(Cl)cc1
Data returned: 7.32

----------
Recorded measurements of viability, T/C, one per entry
- Test system: 282377-053-R-J1-PDC tumor spheroids, viability
- method: Anticancer human tumor 282377-053-R-J1-PDC cell line growth inhibition [TAK];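 further: spheroids exposed to drugs for seven days before readout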
- setup conditions: second compound 9.49 µM; first compound 1 µM; stronger effect = lower value; spheroids with HUVEC and MSC
Supply the numeric figure in %, leaving out any unit text.

Example cases with answers are listed next.
CC(C)(C)c1nc(-c2cccc(NS(=O)(=O)c3c(F)cccc3F)c2F)c(-c2ccnc(N)n2)s1 + CC(C)NCC(C(=O)N1CCN(c2ncnc3c2C(C)CC3O)CC1)c1ccc(Cl)cc1; 51.2
COc1c(OCCCN2CCOCC2)ccc2c3n(c(=NC(=O)c4cnc(N)nc4)nc12)CCN3 + CC(C)NCC(C(=O)N1CCN(c2ncnc3c2C(C)CC3O)CC1)c1ccc(Cl)cc1; 11.4
Cc1nc(NC(=O)N2CCCC2C(N)=O)sc1-c1ccnc(C(C)(C)C(F)(F)F)c1 (centres undefined) + CC(C)NCC(C(=O)N1CCN(c2ncnc3c2C(C)CC3O)CC1)c1ccc(Cl)cc1; 75.8

--- query ---
Data request: Requested read-out viability, T/C, target or system 282377-053-R-J1-PDC tumor spheroids, viability, entry CCCS(=O)(=O)Nc1ccc(F)c(C(=O)c2c[nH]c3ncc(-c4ccc(Cl)cc4)cc23)c1F + CC(C)NCC(C(=O)N1CCN(c2ncnc3c2C(C)CC3O)CC1)c1ccc(Cl)cc1
Data returned: 70.1
